- Tested on: Pseudomonas aeruginosa
- measurement description: Antimicrobial activity against Pseudomonas aeruginosa […] ATCC 27853 incubated for 24 hrs by Kirby-Bauer disk diffusion method
- Type: functional
Where a SMILES comes first, the peptide text is derived from it. The star is where a group is joined. Octanoyl = CCCCCCCC(=O)*; Hexanoyl = CCCCCC(=O)*
quantity kind: MIC

Problem: Supply measured MIC of CCCCCC(=O)N[C@H](C(=O)N[C@@H](Cc1ccccc1)C(=O)N[C@@H](CCC(=O)O)C(=O)N[C@@H](CC(C)C)C(=O)N[C@@H](C)C(=O)N[C@H](C(=O)O)[C@@H](C)CC)C(C)C (Hexanoyl-VFELAI-OH) in your reply.
Result: > 100 µM

Problem: Please look at this compound and report its MIC: CCCCCCCC(=O)N[C@H](C(=O)N[C@@H](Cc1ccccc1)C(=O)N[C@@H](CCC(=O)O)C(=O)N[C@H](C(=O)NCC(=O)N[C@H](C(=O)O)[C@@H](C)CC)[C@@H](C)CC)C(C)C (Octanoyl-VFEIGI-OH)
Result: > 100 µM

Problem: Report measured MIC; entry is CCCCCCCC(=O)N[C@H](C(=O)N[C@@H](Cc1ccccc1)C(=O)N[C@@H](CCC(=O)O)C(=O)N[C@@H](CC(C)C)C(=O)O)C(C)C (Octanoyl-VFEL-OH)
Result: > 100 µM

Give one value of MIC per listed compound.
1. CCCCCCCC(=O)N[C@H](C(=O)N[C@@H](Cc1ccccc1)C(=O)N[C@@H](CCC(=O)O)C(=O)N[C@@H](CC(C)C)C(=O)N[C@@H](C)C(=O)N[C@@H](CC(C)C)C(=O)O)C(C)C (Octanoyl-VFELAL-OH)
2. CCCCCC(=O)N[C@H](C(=O)N[C@@H](Cc1ccccc1)C(=O)N[C@@H](CCC(=O)O)C(=O)N[C@@H](CC(C)C)C(=O)N[C@@H](C)C(=O)N[C@@H](CC(C)C)C(=O)O)C(C)C (Hexanoyl-VFELAL-OH)

Result:
["> 100 µM", "> 100 µM"]

* * *

Give measured MIC for each item. Keep answers brief.
- Tested on: Aspergillus fumigatus
- measurement description: Antimicrobial activity against Aspergillus fumigatus incubated for 24 hrs by Kirby-Bauer disk diffusion method
- Format: functional
Where a SMILES comes first, the peptide text is derived from it. The star is where a group is joined. Octanoyl = CCCCCCCC(=O)*; Hexanoyl = CCCCCC(=O)*

Go through the list and state MIC for each entry.
1. CCCCCCCC(=O)N[C@H](C(=O)N[C@@H](Cc1ccccc1)C(=O)N[C@@H](CCC(=O)O)C(=O)N[C@@H](CC(C)C)C(=O)N[C@@H](C)C(=O)N[C@H](C(=O)O)[C@@H](C)CC)C(C)C (Octanoyl-VFELAI-OH)
2. CCCCCCCC(=O)N[C@H](C(=O)N[C@@H](Cc1ccccc1)C(=O)N[C@@H](CCC(=O)O)C(=O)N[C@H](C(=O)O)[C@@H](C)CC)C(C)C (Octanoyl-VFEI-OH)
3. CCCCCC(=O)N[C@H](C(=O)N[C@@H](Cc1ccccc1)C(=O)N[C@@H](CCC(=O)O)C(=O)N[C@H](C(=O)N[C@@H](C)C(=O)N[C@H](C(=O)O)[C@@H](C)CC)[C@@H](C)CC)C(C)C (Hexanoyl-VFEIAI-OH)

Result:
1. > 100 µM
2. > 100 µM
3. > 100 µM
